Below, each entry is listed with its recorded IC50.
molecular target: Androgen receptor (Homo sapiens, UniProt P10275); test: Antagonist activity at AR in human LNCAP cells assessed as reduction in DHT-induced transcriptional activation after 24 hrs by luciferase reporter gene assay
Sequence (P10275 whole entry): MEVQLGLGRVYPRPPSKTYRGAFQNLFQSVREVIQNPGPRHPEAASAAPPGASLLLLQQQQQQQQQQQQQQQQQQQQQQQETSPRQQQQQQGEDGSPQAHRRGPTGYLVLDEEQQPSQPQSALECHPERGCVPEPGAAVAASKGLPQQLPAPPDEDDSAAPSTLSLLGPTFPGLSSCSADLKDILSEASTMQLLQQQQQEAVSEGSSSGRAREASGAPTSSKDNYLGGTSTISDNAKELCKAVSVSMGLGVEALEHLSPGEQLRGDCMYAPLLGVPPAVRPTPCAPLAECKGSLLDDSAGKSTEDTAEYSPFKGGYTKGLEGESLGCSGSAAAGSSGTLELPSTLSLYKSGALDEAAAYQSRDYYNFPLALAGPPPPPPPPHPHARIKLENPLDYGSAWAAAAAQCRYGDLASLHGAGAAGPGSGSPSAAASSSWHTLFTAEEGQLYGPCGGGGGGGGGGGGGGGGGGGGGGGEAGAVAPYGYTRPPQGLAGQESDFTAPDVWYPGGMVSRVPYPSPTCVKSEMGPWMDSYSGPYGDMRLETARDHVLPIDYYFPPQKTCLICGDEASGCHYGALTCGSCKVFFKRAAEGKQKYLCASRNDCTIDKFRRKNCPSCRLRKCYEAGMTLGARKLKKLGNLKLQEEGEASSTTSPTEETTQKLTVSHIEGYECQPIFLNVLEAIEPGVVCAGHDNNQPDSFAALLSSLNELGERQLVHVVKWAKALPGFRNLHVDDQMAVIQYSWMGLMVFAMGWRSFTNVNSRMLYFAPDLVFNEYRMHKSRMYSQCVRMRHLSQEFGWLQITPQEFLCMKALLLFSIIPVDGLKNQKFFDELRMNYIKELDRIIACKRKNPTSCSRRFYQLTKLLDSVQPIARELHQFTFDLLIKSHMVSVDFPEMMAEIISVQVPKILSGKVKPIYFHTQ

{"smi": "CC(C)Oc1ccccc1/C=C/C(=O)c1cc(Br)ccc1O", "assayedSystem": "Androgen receptor (Homo sapiens, UniProt P10275)", "IC50": "< 1000 nM"}

Please list IC50 recorded for the molecule `COCOc1ccccc1/C=C/C(=O)c1cc(F)ccc1O`
> 10000 nM

Read the entry `COc1ccc(O)c(C(=O)/C=C/c2ccccc2OC)c1` and write its reported IC50.
< 1000 nM

These data points were gathered from ChEMBL document CHEMBL4270636.
